- measurement_notes: Primary qHTS to identify inhibitors of SARS-CoV-2 cell entry (AID 1645846); also: nearly all actives have a fitted effect of over 45% in size
- condition_set: SARS-CoV-2 pseudovirus cell entry assay, luminescence; at 57.1 µM (top of the series) unless noted
Records with an inconclusive call do not appear.
The following compounds are listed with their measured activity change, negative = inhibition values.
readout_name: activity change, negative = inhibition (%)

compound	value_measured
COc1ccccc1C(=O)Nc1cc2c(cc1N1CCNC[C@H]1C)n(C)c(=O)n2C	-55.2
C[C@@H](C1CC[C@@]2(O)C3=CC(=O)[C@@H]4C[C@@H](O)[C@@H](O)C[C@]4(C)[C@H]3CC[C@]12C)[C@H](O)CCC(C)(C)O (some centres undefined)	-30.2
O=C(Nc1ccccc1)Nc1ccc(-c2ccc(C(=O)[C@@H]3CCC[C@H]3C(=O)O)cc2)cc1	-45.3
O=C(/C=C/c1ccc(Cl)cc1)N1CCC2(CC1)CN(Cc1ccc(Cl)c(Cl)c1)C(=O)O2	0.824
CC/C=C\C/C=C\C/C=C\C/C=C\C/C=C\CCCC(=O)O	-29
CC1(C)SCCN(S(=O)(=O)c2ccc(OCC#CCO)cc2)[C@H]1C(=O)NO	-8.73
COc1ccc(-c2c(Cl)ncn2-c2ccc(S(N)(=O)=O)cc2)cc1F	-27
CC(C)(c1ccc(OCC(O)CO)cc1)c1ccc(OCC(O)CCl)cc1 (centres undefined)	-34.4
Cn1cc(-c2ccc3c(c2)CCN3C(=O)Cc2cccc(C(F)(F)F)c2)c2c(N)ncnc21	3.56
C[C@]12CCC3c4ccc(OS(=O)(=O)O)cc4CCC3C1CCC2=O (some centres undefined)	-13.1
CC(C)OC(=O)[C@H](C)N[P@](=O)(OC[C@H]1O[C@@H](n2ccc(=O)[nH]c2=O)[C@](C)(F)[C@@H]1O)Oc1ccccc1	-40
CC(=O)OC1C[C@H](O[C@@H]2C(O)C[C@H](O[C@@H]3C(O)C[C@@H](OC4CC[C@]5(C)C(CCC6C5CC(O)[C@@]5(C)C(C7=CC(=O)OC7)CC[C@@]65O)C4)OC3C)OC2C)O[C@H](C)[C@H]1O[C@H]1OC(CO)C(O)C(O)C1O (some centres undefined)	-96.3

----------
- system_under_test: Mitogen-activated protein kinase 10 (Mus musculus) (UniProt Q61831)
- measurement_notes: JNK3 AlphaScreen Assay (AID 530);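 also: kinase came from lysate of stimulated human HepG2 cells; signal reports phosphorylation of biotinylated GST-cJun 1-79 at Ser73 with 10 µM ATP; % is scaled to controls: 0 for no effect and ±100 for the full control effect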
- condition_set: JNK3 lysate, c-Jun phosphorylation; series mostly up to 57.1 µM
Inconclusive results are not listed. Activity calls are given as the source filed them. Calls follow the shape of the dose curve; as a rule, active = well fitted curve in either direction with a large enough effect (not every such curve was filed as active); inconclusive = small, poorly fitted or top-dose-only effect, or another doubt; inactive = flat fitted curve, though single readings scatter.

line_notation	system_under_test	activity change, negative = inhibition
O=C(Nc1ccccc1)N1CC2(CCN(C(=O)Oc3ccccc3)CC2)C1	Mitogen-activated protein kinase 10 (Mus musculus) (UniProt Q61831)	inactive
CN1CC[C@@]2(CCCN(C(=O)c3ccncc3)C2)C1	Mitogen-activated protein kinase 10 (Mus musculus) (UniProt Q61831)	inactive
c1ccc(N2CCCC3(CCNCC3)C2)cc1	Mitogen-activated protein kinase 10 (Mus musculus) (UniProt Q61831)	inactive
[O-][Br+2]([O-])O	Mitogen-activated protein kinase 10 (Mus musculus) (UniProt Q61831)	inactive
N#Cc1ccc(CN2CCC3(CC2)CCN(C(=O)Oc2ccccc2)CC3)cc1	Mitogen-activated protein kinase 10 (Mus musculus) (UniProt Q61831)	inactive
CC[C@@]1(c2ccc(N)cc2)CCC(=O)NC1=O	Mitogen-activated protein kinase 10 (Mus musculus) (UniProt Q61831)	inactive
c1ccc(-c2ccccc2)cc1	Mitogen-activated protein kinase 10 (Mus musculus) (UniProt Q61831)	inactive
CCN1C[C@]2(C)CC[C@H](O)[C@@]34[C@@H]5CC6[C@@H](OC)C[C@@](O)([C@@H]5[C@@H]6O)[C@H](C[C@@H]23)[C@H]14	Mitogen-activated protein kinase 10 (Mus musculus) (UniProt Q61831)	inactive
COc1ccc(NC(=O)N2CC[C@@]3(CCCN(C(=O)Oc4ccccc4)C3)C2)cc1	Mitogen-activated protein kinase 10 (Mus musculus) (UniProt Q61831)	inactive
Nc1ccccc1Cl	Mitogen-activated protein kinase 10 (Mus musculus) (UniProt Q61831)	inactive

----------
- Tested on: CP192
- measurement_notes: qHTS profiling for inhibitors of Plasmodium falciparum proliferation (AID 504749); also: nearly all actives have a fitted effect of over 60% in size
- condition_set: P. falciparum in erythrocytes, SYBR Green DNA, 72 h; series mostly up to 28.7 µM
Inconclusive results are not listed. The source made the active and inactive calls. Calls come from the whole dose curve; as a rule, active = well fitted inhibition curve with a large enough effect; inconclusive = small, poorly fitted or top-dose-only effect; inactive = flat fitted curve, though single readings scatter.
Possible outcomes: active, inactive

molecule	system_under_test	cat
CCN[C@]1(c2cccs2)CCCCC1=O	CP192	inactive
COc1ccc2c(c1OC)CN1CCc3cc4c(cc3[C@H]1C2)OCO4	CP192	active
CC(=O)O[C@H]1CC[C@@]2(C)C(=CC[C@@H]3[C@H]2CC[C@]2(C)C(=O)CC[C@H]32)C1	CP192	inactive
Oc1ccc2c3c1O[C@H]1[C@@H](O)CC[C@@]4(O)C(C2)N(CC2CCC2)CCC314 (stereo not given in full)	CP192	inactive
CCC(C)C1O[C@]2(C=CC1C)CC1CC(C/C=C(\C)[C@H](OC3CC(OC)C(O[C@H]4CC(OC)[C@@H](O)C(C)O4)C(C)O3)[C@@H](C)/C=C/C=C3\COC4C(O)C(C)=C[C@H](C(=O)O1)[C@@]34O)O2 (stereo not given in full)	CP192	active

----------
- measurement_notes: Cell Viability - LYMP2-011 (AID 969);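 also: cells exposed to compound for 24 hours; 0% = DMSO only and full inhibition = 92 µM tetraoctylammonium bromide; nearly all actives have a fitted effect of over 60% in size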
- condition_set: LYMP2-011 lymphoblastoid cells viability; series mostly up to 92.2 µM
Records with an inconclusive call do not appear. Calls of active or inactive are those of the source. Calls follow the shape of the dose curve; as a rule, active = well fitted cell-killing curve with a large enough effect; inconclusive = small, poorly fitted or top-dose-only effect; inactive = flat fitted curve, though single readings scatter.

compound	outcome
COC(=O)NC(=S)Nc1ccccc1NC(=S)NC(=O)OC	inactive
Cc1cccc([N+](=O)[O-])c1	inactive
ClC(Cl)=C(c1ccc(Cl)cc1)c1ccc(Cl)cc1	inactive
CC(Cl)Cl	inactive
C/C=C/c1ccc2c(c1)OCO2	inactive
c1ccc(OP(Oc2ccccc2)Oc2ccccc2)cc1	inactive
c1ccc2c(c1)CCCC2	inactive
C=CC1CC=CCC1 (stereo not given)	inactive
C=CCOC(C)=O	inactive
CC(=O)[O-].CC(=O)[O-].O.O.O.[Pb+2]	inactive
C=CCOC(=O)c1ccccc1N	inactive
c1nc[nH]n1	inactive
COC1=CC(=O)O[C@@H](/C=C/c2ccc3c(c2)OCO3)C1	inactive
CC(O)CCl (stereo not given)	inactive
CC(C)(C)OOC(C)(C)C	inactive

----------
- system_under_test: Nuclear receptor subfamily 1 group I member 3 (Homo sapiens) (UniProt Q14994)
- Sequence (Q14994 whole entry, looked up): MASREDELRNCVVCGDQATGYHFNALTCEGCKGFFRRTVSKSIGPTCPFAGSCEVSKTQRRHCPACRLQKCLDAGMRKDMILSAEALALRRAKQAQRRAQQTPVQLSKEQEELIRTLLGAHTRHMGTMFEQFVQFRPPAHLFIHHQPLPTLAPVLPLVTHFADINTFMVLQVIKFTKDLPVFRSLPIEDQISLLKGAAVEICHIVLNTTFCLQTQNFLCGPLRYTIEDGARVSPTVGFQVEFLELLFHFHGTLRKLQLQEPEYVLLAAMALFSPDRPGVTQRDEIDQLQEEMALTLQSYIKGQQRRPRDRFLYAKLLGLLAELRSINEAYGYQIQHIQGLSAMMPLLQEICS
- measurement_notes: qHTS for Constitutive Androstane Receptor (CAR) Agonist screened against the NCATS CANVASS Library (AID 1347373);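 also: every well also contained 1.5 µM PK11195 alongside the test compound; 0% is about no effect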
- condition_set: HepG2-hCAR-CYP2B6 luciferase reporter, ONE-Glo luminescence; series mostly up to 46.1 µM
Inconclusive results are not listed. The source made the active and inactive calls. Calls follow the shape of the dose curve; as a rule, active = well fitted activation curve with a large enough effect; inconclusive = small, poorly fitted or top-dose-only effect; inactive = no such curve, though single readings can be large or run the other way.
readout_name: outcome

line_notation	value_measured
C=C(C)[C@H]1C(=O)c2c3c(cc4c5c(n1c24)[C@@]1(C)[C@@H](CC[C@H]2[C@](C)(/C=C/C=C(\C)C(=O)O)[C@@H](O)CC[C@@]21C)C5)C1=CC(C)(C)OC(C)(C)[C@H]1[C@@H]3O	inactive
C=C[C@]12C=CCN3CC[C@@]4(c5ccccc5NC(=O)[C@@H]4C1)[C@@H]32	inactive
C=CC(C)(C)[C@@]12C[C@H]3C(=O)N/C(=C/c4cnc[nH]4)C(=O)N3[C@@H]1Nc1ccccc12	inactive

----------
- measurement_notes: Cytotoxicity counterscreen for inhibitors of SARS-CoV-2 cell entry (AID 1645845); also: nearly all actives have a fitted effect of over 50% in size
- condition_set: cell viability (SARS-CoV-2 entry assay cells); series mostly up to 57.1 µM
Inconclusive results are not listed. Calls of active or inactive are those of the source. Calls follow the shape of the full dose curve. Peptide text beside a SMILES is read from it.
Possible outcomes: active, inactive

molecule	cat
O=C(NNc1ccccc1)c1ccncc1	inactive
COc1cc2c(cc1OC)[C@H]1C[C@@H](OC(=O)[C@@H](N)C(C)C)[C@H](CC(C)C)CN1CC2	inactive
O=C[C@H](O)[C@@H](O)[C@H](O)[C@H](O)CO	inactive
CC(C)(CNC(=O)c1cccc(-c2noc(C(F)(F)F)n2)c1)c1coc(-c2ccccc2)n1	inactive
CC(=O)OCC(=O)[C@@]12OC3(CCCC3)O[C@@H]1C[C@H]1[C@@H]3CCC4=CC(=O)C=C[C@]4(C)[C@@]3(F)[C@@H](O)C[C@@]12C	inactive
CO[C@H]1C[C@@H](O[C@@H]2/C(C)=C/C[C@@H]3C[C@@H](C[C@]4(CC[C@H](C)[C@@H](C5CCCCC5)O4)O3)OC(=O)[C@@H]3C=C(C)/C(=N/O)[C@H]4OC/C(=C\C=C\[C@@H]2C)[C@]43O)O[C@@H](C)[C@H]1O	inactive
CCCN1CCN(c2ccc(C(=O)NC3(C(=O)NCC#N)CCCCC3)cc2)CC1	inactive
Cc1nc(-c2cccnc2)sc1C(=O)Nc1ccccc1-c1cn2c(CN3CCOCC3)csc2n1	inactive
c1ccc(-c2ccc(CNc3nc(-c4ccccn4)nnc3-c3ccccc3)cc2)cc1	active
CCCCCCCCCCCCCC(=O)OCC(COP(=O)([O-])OCC[N+](C)(C)C)OC(=O)CCCCCCCCCCCCC (configuration not stated)	inactive
C=C[C@H]1CN2CC[C@H]1C[C@@H]2[C@@H](OC(=O)OCC)c1ccnc2ccc(OC)cc12	inactive
C[C@@H](O)[C@H]1C(=O)N2C(C(=O)O)=C(S[C@@H]3CN[C@H](C(=O)Nc4cccc(C(=O)O)c4)C3)[C@H](C)[C@H]12	inactive
Clc1cccc(-c2ccc(-c3nnc(CCCc4ccc5cccnc5n4)o3)cc2)c1	inactive
CN[C@@H](C)C(=O)N[C@H](C(=O)N1CCC[C@H]1c1nc(C(=O)c2ccc(F)cc2)cs1)C1CCCCC1	inactive
[2H]C([2H])([2H])C(O)([C@@H](C)/C=C/[C@@H](C)[C@H]1CC[C@H]2/C(=C/C=C3C[C@@H](O)C[C@H](O)C3)CCC[C@]12C)C([2H])([2H])[2H]	inactive
CC1(C)S[C@@H]2[C@H](NC(=O)[C@H](N)c3ccccc3)C(=O)N2[C@H]1C(=O)OCOC(=O)[C@@H]1N2C(=O)C[C@H]2S(=O)(=O)C1(C)C	inactive
C[Si](C)(C)O[Si](C)(C)O[Si](C)(C)C	inactive
C[C@H]1[C@H](C)CC[C@]2(C(=O)O)CC[C@]3(C)C(=CC[C@@H]4[C@@]5(C)CC[C@H](O)C(C)(C)[C@@H]5CC[C@]43C)[C@H]12	inactive
CC(=O)N1CCC[C@H]1C(=O)N[C@@H](Cc1cnc[nH]1)C(=O)N[C@@H](CO)C(=O)N[C@@H](CS)C(=O)N[C@@H](CC(N)=O)C(N)=O (Ac-PHSCN-NH2)	inactive
O=C(O)C1=C(CSc2nnnn2CS(=O)(=O)O)CS[C@@H]2[C@@H](NC(=O)[C@H](O)c3ccccc3)C(=O)N12	inactive
COC1CC(C(=O)c2ccc3c(N)ncc(-c4ccc(-c5cnn(C)c5)cc4)c3n2)C1 (configuration not stated)	inactive
CC1(COc2ccc(N3CCC(Oc4ccc(OC(F)(F)F)cc4)CC3)cc2)Cn2cc([N+](=O)[O-])nc2O1 (configuration not stated)	inactive
Cc1[nH]nc2ncc(C(=O)N3CCC[C@H]3c3ccc(Cl)cc3)cc12	inactive
CCCN(CCC)C(=O)C1=Cc2ccc(-c3ccc(C(=O)N4CCCC4)cc3)cc2N=C(N)C1	inactive
CCOc1nc2cccc(C(=O)OC(C)OC(=O)OC3CCCCC3)c2n1Cc1ccc(-c2ccccc2-c2nn[nH]n2)cc1 (configuration not stated)	inactive
CN(Cc1ccccc1)C(=O)[C@H](NC(=O)c1cc2cc(NC(=O)c3ccccc3-c3ccc(C(F)(F)F)cc3)ccc2n1C)c1ccccc1	inactive
Cc1c[nH]c2ncnc(N3CCC(CN)(C(=O)Nc4cccc(OC(=O)N(C)C)c4)CC3)c12	inactive
Cc1c(CN2CCN(C(=O)[C@H](C)O)CC2)sc2c(N3CCOCC3)nc(-c3cnc(N)nc3)nc12	inactive
O=C(O)[C@H]1OC(O)[C@H](O)[C@@H](O)[C@@H]1O (some centres not stated)	inactive
C[C@H](Cc1cc2c(c(C(N)=O)c1)N(CCCO)CC2)NCCOc1ccccc1OCC(F)(F)F	inactive
CC(OC(=O)NCC1(CC(=O)O)CCCCC1)OC(=O)C(C)C (configuration not stated)	inactive
Cc1cnc(Nc2ccc(F)cc2Cl)nc1-c1c[nH]c(C(=O)NC(CO)c2cccc(Cl)c2)c1 (configuration not stated)	inactive
